Test system: B16F1 mouse melanoma cells
ASSAY INFO: Intracellular melanin enhancement
Assay type: cell-based
SETUP CONDITIONS: Table E; 2 μg/ml
Marks after values point to notes of the source that are not given here.
MEASUREMENT NAME: Folds of Melanin Enhancement compared to control

C=CC1(C)CC(=O)C2C3(C)CCCC(C)(C)C3C(O)C(OC(C)=O)C2(C)O1 (stereo not shown); 2* Folds
CC(C)=CCOc1c2occc2cc2ccc(=O)oc12; 1.78* Folds
C/C=C1\C(=O)C[C@H]2[C@@H]3CCC4=CC(=O)CC[C@]4(C)[C@H]3CC[C@]12C; 1.38 Folds
COc1c2ccoc2cc2oc(=O)ccc12; toxic

====

System: B16F1 mouse melanoma cells
ASSAY INFO: Intracellular melanin enhancement
Format: cell-based
SETUP CONDITIONS: Table E; 2 μg/ml
Marks after values point to notes of the source that are not given here.
MEASUREMENT NAME: Folds of Melanin Enhancement compared to control

CC1(C)[C@@H](O[C@H]2O[C@H](C(=O)O)[C@@H](O)[C@H](O)[C@H]2O[C@@H]2O[C@H](C(=O)O)[C@@H](O)[C@H](O)[C@H]2O)CC[C@]2(C)[C@H]3C(=O)C=C4[C@@H]5C[C@@](C)(C(=O)O)CC[C@]5(C)CC[C@@]4(C)[C@]3(C)CC[C@@H]12; 2.76* Folds
COc1c2occc2cc2ccc(=O)oc12; toxic
C=C[C@@]1(C)CC(=O)[C@]2(O)[C@@]3(C)CCCC(C)(C)[C@@H]3[C@H](O)[C@H](OC(C)=O)[C@@]2(C)O1; 1.8* Folds
